- Test system: VX-950^res and BILN-2061^res replicon
- assay-overview: Anti-HCV assay, VX-950 and BILN-2061 double resistant replicon
- setup-conditions: versus wild-type replicon
observation-type: fold resistance, VX-950^res and BILN-2061^res

{"molecule": "C[C@@]1(O)[C@H](O)[C@@H](CO)O[C@H]1n1ccc(N)nc1=O [2′-C-MeCyt, 2′-C-Methylcytidine]", "observed-measurement": "(2.3)"}
{"molecule": "COc1ccc2c(O[C@@H]3C[C@H]4C(=O)N[C@]5(C(=O)O)C[C@H]5/C=C\\CCCCC[C@H](NC(=O)OC5CCCC5)C(=O)N4C3)cc(-c3csc(NC(C)C)n3)nc2c1 [BILN-2061]", "observed-measurement": "(80)"}
{"molecule": "Fc1cccc(-c2nc3ccn(Cc4cc(-c5ccc(Cl)cc5)no4)cc-3n2)c1F [GS-327073]", "observed-measurement": "(2.0)"}
{"molecule": "CCC[C@H](NC(=O)[C@@H]1[C@H]2CCC[C@H]2CN1C(=O)[C@@H](NC(=O)[C@@H](NC(=O)c1cnccn1)C1CCCCC1)C(C)(C)C)C(=O)C(=O)NC1CC1 [VX-950]", "observed-measurement": "(24)"}

###

- assay-overview: Cytostatic assay
- Assay type: cell-based
- setup-conditions: human, HCV replicon-containing cells (Huh 5-2, HuH6 or Huh 9-13)
I'd be grateful if you could share measured CC50 for these entries.

Fc1cccc(-c2nc3ccn(Cc4cc(-c5ccc(Cl)cc5)no4)cc-3n2)c1F has a reported CC50 of ≥ 17 µM

COc1ccc2c(O[C@@H]3C[C@H]4C(=O)N[C@]5(C(=O)O)C[C@H]5/C=C\CCCCC[C@H](NC(=O)OC5CCCC5)C(=O)N4C3)cc(-c3csc(NC(C)C)n3)nc2c1 has a reported CC50 of ≥ 22 µM

CNC(=O)c1c(-c2ccc(F)cc2)oc2cc(N(CCO)S(C)(=O)=O)c(C3CC3)cc12 has a reported CC50 of > 33 µM

C[C@@]1(O)[C@H](O)[C@@H](CO)O[C@H]1n1ccc(N)nc1=O has a reported CC50 of ≥ 26 µM

CCC[C@H](NC(=O)[C@@H]1[C@H]2CCC[C@H]2CN1C(=O)[C@@H](NC(=O)[C@@H](NC(=O)c1cnccn1)C1CCCCC1)C(C)(C)C)C(=O)C(=O)NC1CC1 has a reported CC50 of ≥ 24 µM

NC(=O)c1ncn([C@@H]2O[C@H](CO)[C@@H](O)[C@H]2O)n1 has a reported CC50 of > 33 µM

[N-]=[N+]=N[C@]1(CO)O[C@@H](n2ccc(N)nc2=O)[C@H](O)[C@@H]1O has a reported CC50 of > 33 µM

CC(C)(C)NC(=O)N[C@H](C(=O)N1C[C@H]2[C@@H]([C@H]1C(=O)NC(CC1CCC1)C(=O)C(N)=O)C2(C)C)C(C)(C)C (some centres unmarked) has a reported CC50 of ≥ 7.4 µM

###

- Tested on: 2′-C-MeCyt^res replicon
- assay-overview: Anti-HCV assay, 2′-C-MeCyt resistant replicon
- setup-conditions: versus wild-type replicon
observation-type: fold resistance, 2′-C-MeCyt^res

{"structure-smiles": "C[C@@]1(O)[C@H](O)[C@@H](CO)O[C@H]1n1ccc(N)nc1=O", "observed-measurement": "⩾81"}
{"structure-smiles": "CCC[C@H](NC(=O)[C@@H]1[C@H]2CCC[C@H]2CN1C(=O)[C@@H](NC(=O)[C@@H](NC(=O)c1cnccn1)C1CCCCC1)C(C)(C)C)C(=O)C(=O)NC1CC1", "observed-measurement": "(1.7)"}
{"structure-smiles": "COc1ccc2c(O[C@@H]3C[C@H]4C(=O)N[C@]5(C(=O)O)C[C@H]5/C=C\\CCCCC[C@H](NC(=O)OC5CCCC5)C(=O)N4C3)cc(-c3csc(NC(C)C)n3)nc2c1", "observed-measurement": "(4.0)"}
{"structure-smiles": "Fc1cccc(-c2nc3ccn(Cc4cc(-c5ccc(Cl)cc5)no4)cc-3n2)c1F", "observed-measurement": "(4.0)"}
